Just for reference, patent US20240150322A1 is where these values come from.

Assay: Pharmacokinetic study in mice
Details: mouse, in vivo, po
metric name: bioavailability (%)
Give the number; % is assumed, so skip it.

// returns reported bioavailability for input "CC(C)c1c2cc(-c3ccnc(N[C@H]4CC[C@H](N)C4)n3)ccc2nn1C"
28

* * *

Biological target: CDK4/cyclinD (Homo sapiens, UniProt P11802)
Sequence (P11802 whole entry): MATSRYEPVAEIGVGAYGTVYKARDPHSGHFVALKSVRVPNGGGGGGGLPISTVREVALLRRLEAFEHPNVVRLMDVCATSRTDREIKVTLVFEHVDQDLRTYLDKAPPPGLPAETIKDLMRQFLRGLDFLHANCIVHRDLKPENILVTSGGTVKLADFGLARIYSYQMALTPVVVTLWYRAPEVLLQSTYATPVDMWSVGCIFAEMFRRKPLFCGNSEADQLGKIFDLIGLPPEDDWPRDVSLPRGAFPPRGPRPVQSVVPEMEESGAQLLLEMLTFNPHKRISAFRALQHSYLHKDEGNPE
Sequence (P24385 whole entry partner): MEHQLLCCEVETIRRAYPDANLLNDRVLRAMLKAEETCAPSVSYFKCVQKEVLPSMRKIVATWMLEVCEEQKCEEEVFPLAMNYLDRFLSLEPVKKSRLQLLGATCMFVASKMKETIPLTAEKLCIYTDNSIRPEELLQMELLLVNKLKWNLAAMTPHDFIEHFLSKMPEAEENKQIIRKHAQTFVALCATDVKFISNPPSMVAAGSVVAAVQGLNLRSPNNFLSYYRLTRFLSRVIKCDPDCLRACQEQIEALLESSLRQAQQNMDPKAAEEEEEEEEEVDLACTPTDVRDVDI
Assay: CDK family kinase profiling, radioisotope-based assay (33P)
Conditions: read-out: 10-dose IC50
metric name: pIC50
Here pIC50 is given on a logarithmic scale as minus log10 of the concentration in mol/L.

// returns reported pIC50 for input CC(C)c1c2cc(-c3ccnc(N[C@H]4CC[C@H](N)C4)n3)ccc2nn1C [Compound I-2]
7.64

* * *

Experiment: Pharmacokinetic study in male Beagle dogs
Assay type: in vivo
Conditions: dog, plasma, IV 1 mg/kg
metric name: MRT (h)
Give the number; h is assumed, so skip it.

// returns reported MRT for input "CC(C)c1c2cc(-c3ccnc(N[C@H]4CC[C@H](N)C4)n3)ccc2nn1C"
3.82

* * *

Assay: Pharmacokinetic study in male Beagle dogs
Type: in vivo
Conditions: dog, plasma, IV 1 mg/kg, extrapolated concentration at time zero
metric name: C0 (ng/mL)
Give the number; ng/mL is assumed, so skip it.

// returns reported C0 for input "CC(C)c1c2cc(-c3ccnc(N[C@H]4CC[C@H](N)C4)n3)ccc2nn1C"
312

* * *

Test: Pharmacokinetic study in male Beagle dogs
Type: in vivo
Conditions: male, Beagle, dog, plasma, iv, 1 mg/kg, IV 1 mg/kg, read-out: Vd
metric name: Vd

// returns reported Vd for input CC(C)c1c2cc(-c3ccnc(N[C@H]4CC[C@H](N)C4)n3)ccc2nn1C [Compound I-2]
11.3 L/kg

* * *

Target: human P450 isozyme 2C19 (Homo sapiens, UniProt P33261)
Construct: host or cells: insect cells infected with recombinant baculovirus
Test: P450 isozyme inhibition assay (baculosomes)
Type: in vitro ADME
Details: P450 2C19
metric name: pIC50
Here pIC50 is given on a logarithmic scale as minus log10 of the concentration in mol/L.

// returns reported pIC50 for input "CC(C)c1c2cc(-c3ccnc(N[C@H]4CC[C@H](N)C4)n3)ccc2nn1C"
4.55

* * *

Biological target: CDK3/cyclinE (Homo sapiens)
Experiment: DiscoveRx KINOMEscan Kd (KdELECT)
metric name: Kd
Put down the number, then write its unit next to it.

Kd of "CC(C)c1c2cc(-c3ccnc(N[C@H]4CC[C@H](N)C4)n3)ccc2nn1C" on CDK3/cyclinE (Homo sapiens)?
31 nM

* * *

System: C4-2B
Assay: 2D CellTiter-Glo cell viability assay
Type: cell-based
Conditions: 72 hours
metric name: pIC50
Here pIC50 is given on a logarithmic scale as minus log10 of the concentration in mol/L.

// returns reported pIC50 for input "CC(C)c1c2cc(-c3ccnc(N[C@H]4CC[C@H](N)C4)n3)ccc2nn1C"
7.50

* * *

Target: PRKD3 (Homo sapiens, UniProt O94806)
Sequence (O94806 whole entry): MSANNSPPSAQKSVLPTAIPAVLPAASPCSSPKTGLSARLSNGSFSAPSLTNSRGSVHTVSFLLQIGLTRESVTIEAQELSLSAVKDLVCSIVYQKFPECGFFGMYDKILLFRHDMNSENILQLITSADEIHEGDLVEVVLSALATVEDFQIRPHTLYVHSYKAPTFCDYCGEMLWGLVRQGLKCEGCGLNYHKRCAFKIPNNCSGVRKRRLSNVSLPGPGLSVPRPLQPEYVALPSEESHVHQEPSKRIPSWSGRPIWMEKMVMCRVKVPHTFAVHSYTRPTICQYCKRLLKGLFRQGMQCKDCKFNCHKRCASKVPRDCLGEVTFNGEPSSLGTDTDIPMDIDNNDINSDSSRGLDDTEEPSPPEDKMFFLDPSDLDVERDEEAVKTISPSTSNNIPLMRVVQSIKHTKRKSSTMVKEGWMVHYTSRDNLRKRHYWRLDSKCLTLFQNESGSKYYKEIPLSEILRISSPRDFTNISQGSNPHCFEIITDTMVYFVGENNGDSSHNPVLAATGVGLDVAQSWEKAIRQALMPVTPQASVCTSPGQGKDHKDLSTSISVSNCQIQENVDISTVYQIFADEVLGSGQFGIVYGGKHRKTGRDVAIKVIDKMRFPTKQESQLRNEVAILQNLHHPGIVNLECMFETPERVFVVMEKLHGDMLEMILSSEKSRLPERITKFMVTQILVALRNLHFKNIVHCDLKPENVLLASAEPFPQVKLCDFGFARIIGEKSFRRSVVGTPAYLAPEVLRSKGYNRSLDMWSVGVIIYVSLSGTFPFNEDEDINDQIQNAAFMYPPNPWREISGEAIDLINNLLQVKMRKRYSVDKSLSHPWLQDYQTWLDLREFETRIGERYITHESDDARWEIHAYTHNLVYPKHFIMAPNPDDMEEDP
Test: scanMAX panel and Kd follow-up
Type: binding
Conditions: PRKD3
metric name: pKd
Here pKd is given on a logarithmic scale as minus log10 of the concentration in mol/L.

// returns reported pKd for input CC(C)c1c2cc(-c3ccnc(N[C@H]4CC[C@H](N)C4)n3)ccc2nn1C [Compound I-2]
6.64

* * *

Assay: Pharmacokinetic study in male Beagle dogs
Format: in vivo
Settings: dog, plasma, IV 1 mg/kg
metric name: clearance (mL/min/kg)
Give the number; mL/min/kg is assumed, so skip it.

// returns reported clearance for input "CC(C)c1c2cc(-c3ccnc(N[C@H]4CC[C@H](N)C4)n3)ccc2nn1C"
31.8

* * *

Experiment: Pharmacokinetic study in male Beagle dogs
Format: in vivo
Conditions: dog, plasma, oral 3 mg/kg, read-out: Tmax (hours), median (min-max)
metric name: Tmax (h)
Give the number; h is assumed, so skip it.

// returns reported Tmax for input "CC(C)c1c2cc(-c3ccnc(N[C@H]4CC[C@H](N)C4)n3)ccc2nn1C"
1

* * *

Molecular target: CDK9/cyclinT (Homo sapiens)
Sequence (P50750 whole entry): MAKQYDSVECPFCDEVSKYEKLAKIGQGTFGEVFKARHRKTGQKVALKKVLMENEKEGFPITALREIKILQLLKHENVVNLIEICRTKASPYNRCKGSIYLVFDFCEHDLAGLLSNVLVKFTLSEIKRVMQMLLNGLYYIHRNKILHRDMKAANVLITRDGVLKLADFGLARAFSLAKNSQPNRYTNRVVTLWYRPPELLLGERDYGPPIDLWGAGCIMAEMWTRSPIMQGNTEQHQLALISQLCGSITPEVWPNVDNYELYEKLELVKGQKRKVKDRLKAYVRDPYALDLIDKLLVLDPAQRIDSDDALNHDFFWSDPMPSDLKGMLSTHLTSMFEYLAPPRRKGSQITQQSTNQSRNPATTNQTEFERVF
Sequence (O60563 whole entry partner): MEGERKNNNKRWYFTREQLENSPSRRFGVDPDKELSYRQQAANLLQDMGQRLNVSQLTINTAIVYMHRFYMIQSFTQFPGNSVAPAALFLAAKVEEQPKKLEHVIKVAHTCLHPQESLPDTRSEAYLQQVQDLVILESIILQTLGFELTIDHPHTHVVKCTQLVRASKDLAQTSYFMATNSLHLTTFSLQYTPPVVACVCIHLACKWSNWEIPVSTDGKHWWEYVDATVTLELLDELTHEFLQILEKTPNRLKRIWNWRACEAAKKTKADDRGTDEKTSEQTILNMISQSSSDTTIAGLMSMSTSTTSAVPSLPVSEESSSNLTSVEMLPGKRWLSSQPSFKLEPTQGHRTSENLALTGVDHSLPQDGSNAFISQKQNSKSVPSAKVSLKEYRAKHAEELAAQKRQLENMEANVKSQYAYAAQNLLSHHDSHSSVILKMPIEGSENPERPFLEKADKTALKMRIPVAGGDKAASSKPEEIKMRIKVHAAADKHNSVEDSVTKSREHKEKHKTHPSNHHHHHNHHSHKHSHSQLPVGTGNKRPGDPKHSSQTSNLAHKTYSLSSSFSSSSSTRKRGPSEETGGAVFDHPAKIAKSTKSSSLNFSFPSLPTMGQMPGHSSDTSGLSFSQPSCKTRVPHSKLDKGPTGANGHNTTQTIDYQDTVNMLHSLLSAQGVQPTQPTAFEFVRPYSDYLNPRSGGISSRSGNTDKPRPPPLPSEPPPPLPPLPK
Assay: CDK family kinase profiling, radioisotope-based assay (33P)
Settings: cell-free, read-out: IC50 against CDK9
metric name: IC50

// returns reported IC50 for input "CC(C)c1c2cc(-c3ccnc(N[C@H]4CC[C@H](N)C4)n3)ccc2nn1C"
< 5 nM

* * *

Molecular target: hERG channel (Homo sapiens, UniProt Q12809)
Sequence (Q12809 whole entry): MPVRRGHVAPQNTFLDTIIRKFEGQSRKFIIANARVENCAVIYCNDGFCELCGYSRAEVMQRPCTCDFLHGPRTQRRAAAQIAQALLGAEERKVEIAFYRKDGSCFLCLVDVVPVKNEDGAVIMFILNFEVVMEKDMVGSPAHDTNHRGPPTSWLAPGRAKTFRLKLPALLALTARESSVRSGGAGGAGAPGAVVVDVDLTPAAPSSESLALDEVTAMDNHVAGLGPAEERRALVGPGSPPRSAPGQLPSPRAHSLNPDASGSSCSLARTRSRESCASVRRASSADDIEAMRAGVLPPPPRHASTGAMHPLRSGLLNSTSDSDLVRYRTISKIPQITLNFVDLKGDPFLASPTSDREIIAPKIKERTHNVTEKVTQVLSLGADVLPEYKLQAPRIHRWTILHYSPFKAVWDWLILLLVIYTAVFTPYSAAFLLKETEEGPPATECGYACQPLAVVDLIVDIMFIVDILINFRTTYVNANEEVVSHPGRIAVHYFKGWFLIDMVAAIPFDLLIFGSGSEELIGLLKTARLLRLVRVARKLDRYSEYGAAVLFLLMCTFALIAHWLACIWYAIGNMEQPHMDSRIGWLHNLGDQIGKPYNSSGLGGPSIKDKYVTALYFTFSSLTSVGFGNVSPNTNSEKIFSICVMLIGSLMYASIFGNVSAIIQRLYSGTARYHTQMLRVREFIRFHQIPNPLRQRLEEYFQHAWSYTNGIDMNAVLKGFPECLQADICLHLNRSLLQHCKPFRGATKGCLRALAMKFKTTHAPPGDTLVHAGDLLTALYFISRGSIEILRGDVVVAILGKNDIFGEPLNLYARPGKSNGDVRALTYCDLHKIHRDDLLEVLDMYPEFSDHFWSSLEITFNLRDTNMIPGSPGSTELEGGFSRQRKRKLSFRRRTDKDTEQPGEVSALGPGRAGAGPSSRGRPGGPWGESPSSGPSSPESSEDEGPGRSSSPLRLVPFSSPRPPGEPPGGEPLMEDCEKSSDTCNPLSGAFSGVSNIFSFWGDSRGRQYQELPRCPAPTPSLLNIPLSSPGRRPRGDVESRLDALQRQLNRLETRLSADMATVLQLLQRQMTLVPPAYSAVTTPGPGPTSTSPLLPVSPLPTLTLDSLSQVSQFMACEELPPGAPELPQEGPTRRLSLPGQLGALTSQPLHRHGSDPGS
metric name: IC50 (µM)
Give the number; µM is assumed, so skip it.

IC50 of "CC(C)c1c2cc(-c3ccnc(N[C@H]4CC[C@H](N)C4)n3)ccc2nn1C" on hERG channel (Homo sapiens, UniProt Q12809)?
57.8

* * *

Target: Haspin (Homo sapiens, UniProt Q8TF76)
Sequence (Q8TF76 whole entry): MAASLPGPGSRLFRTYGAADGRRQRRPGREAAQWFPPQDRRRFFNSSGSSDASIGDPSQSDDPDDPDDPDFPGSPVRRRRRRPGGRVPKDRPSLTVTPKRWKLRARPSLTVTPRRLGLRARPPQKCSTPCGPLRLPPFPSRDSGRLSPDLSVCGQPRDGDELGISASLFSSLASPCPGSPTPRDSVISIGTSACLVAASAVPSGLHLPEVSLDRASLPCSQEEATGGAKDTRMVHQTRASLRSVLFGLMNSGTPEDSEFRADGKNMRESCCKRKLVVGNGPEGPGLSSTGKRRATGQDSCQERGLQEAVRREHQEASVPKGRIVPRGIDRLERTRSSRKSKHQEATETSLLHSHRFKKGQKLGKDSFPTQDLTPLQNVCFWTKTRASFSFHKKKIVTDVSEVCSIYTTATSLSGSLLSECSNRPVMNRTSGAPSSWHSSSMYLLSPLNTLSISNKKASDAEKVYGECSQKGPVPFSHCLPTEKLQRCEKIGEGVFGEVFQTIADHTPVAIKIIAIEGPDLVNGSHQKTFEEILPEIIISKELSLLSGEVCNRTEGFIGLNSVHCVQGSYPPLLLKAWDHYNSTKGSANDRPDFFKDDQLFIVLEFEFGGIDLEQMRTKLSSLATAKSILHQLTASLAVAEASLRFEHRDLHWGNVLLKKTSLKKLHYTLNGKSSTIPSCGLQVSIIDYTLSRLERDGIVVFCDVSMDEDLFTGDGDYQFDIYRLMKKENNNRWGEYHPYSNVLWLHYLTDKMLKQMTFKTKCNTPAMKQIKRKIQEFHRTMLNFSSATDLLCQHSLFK
metric name: Kd (nM)
Give the number; nM is assumed, so skip it.

// returns reported Kd for input "CC(C)c1c2cc(-c3ccnc(N[C@H]4CC[C@H](N)C4)n3)ccc2nn1C"
2.8

* * *

Experiment: Pharmacokinetic study in male Beagle dogs
Assay type: in vivo
Conditions: male, Beagle, dog, plasma, iv, 1 mg/kg, IV 1 mg/kg, read-out: Vss
metric name: Vd (L/kg)
Give the number; L/kg is assumed, so skip it.

// returns reported Vd for input CC(C)c1c2cc(-c3ccnc(N[C@H]4CC[C@H](N)C4)n3)ccc2nn1C [Compound I-2]
9.35

* * *

Target: CDK9/CycT1 (Homo sapiens)
Sequence (P50750 whole entry): as the sequence (P50750 whole entry) above
Sequence (O60563 whole entry partner): as the sequence (O60563 whole entry partner) above
Assay: ADP-Glo kinase assay
Description: ADP-Glo assay kit was purchased from Promega and the CDK9/CycT1 protein and PDKtide substrate were purchased from SignalChem. […] The reaction was started by pre-incubating 4 μL of protein (20 nM), 2 μL of substrate (100 μM), and 2 μL of serial diluted drug in 1× assay buffer (50 mM HEPES, 3 mM MgCl2, 3 mM MnCl2, and 1 mM DTT) for 30 minutes. […] The reaction was quantified by measuring luminescence and the IC50 was calculated using GraphPad Prism software.
IC50 listing for selected molecules.

Previously resolved entries follow.
CC(C)c1c2nc(-c3ccnc(N[C@H]4CC[C@H](N)C4)n3)ccc2nn1C ... > 1000 nM
CC(C)c1c2cc(-c3ccnc(N[C@H]4C[C@@H]5CCC4C5)n3)ccc2nn1C (stereo in doubt) ... < 50 nM
CC(C)c1c2cc(-c3ccnc(N[C@H]4CC[C@H](N)C4)n3)cnc2nn1C ... < 50 nM
CC(C)c1c2cc(-c3ccnc(N[C@H]4CC[C@H](N)C4)n3)cc(F)c2nn1C ... < 50 nM
CC(C)c1c2cc(-c3ccnc(N[C@H]4C[C@@H]5CCC4C5)n3)cnc2nn1C (stereo in doubt) ... < 50 nM

// returns reported IC50 for input "CC(C)c1c2cc(-c3ccnc(N[C@H]4CC[C@H](N)C4)n3)ccc2nn1C"
< 50 nM

// returns reported IC50 for input "CC(C)c1[nH]nc2ccc(-c3ccnc(N[C@H]4CC[C@H](N)C4)n3)cc12"
< 50 nM

// returns reported IC50 for input "Cn1cc2cc(-c3ccnc(N[C@H]4CC[C@H](N)C4)n3)ccc2n1"
< 50 nM

// returns reported IC50 for input "CC(C)c1c2cc(-c3ccnc(N[C@@H]4CC[C@H](N)C4)n3)ccc2nn1C"
< 50 nM

// returns reported IC50 for input "Cc1[nH]nc2ccc(-c3ccnc(N[C@H]4CC[C@H](N)C4)n3)cc12"
50 to 100 nM

// returns reported IC50 for input "CC(C)c1nn(C)c2ncc(-c3ccnc(N[C@H]4CC[C@H](N)C4)n3)cc12"
> 1000 nM

* * *

System: C4-2
Test: 2D CellTiter-Glo cell viability assay
Type: cell-based, human
Settings: C4-2, 72 hours
metric name: pIC50
Here pIC50 is given on a logarithmic scale as minus log10 of the concentration in mol/L.

pIC50 of "CC(C)c1c2cc(-c3ccnc(N[C@H]4CC[C@H](N)C4)n3)ccc2nn1C" on C4-2?
7.55

* * *

Assay: Pharmacokinetic study in male Beagle dogs
Format: in vivo
Conditions: dog, plasma, oral 3 mg/kg
metric name: MRT
Put down the number, then write its unit next to it.

// returns reported MRT for input CC(C)c1c2cc(-c3ccnc(N[C@H]4CC[C@H](N)C4)n3)ccc2nn1C [Compound I-2]
4.92 h

* * *

Test system: NCI-H660
Assay: 2D CellTiter-Glo cell viability assay
Type: cell-based
Conditions: NCI-H660, 72 hours
metric name: IC50 (nM)
Give the number; nM is assumed, so skip it.

CC(=O)N[C@@H]1CCC[C@H](C(=O)Nc2cc(-c3cnn4c3CC(C)(C)C4)c(Cl)cn2)C1 [AZD-4573, reference compound] ... 0.221

Turning now to a further compound:
// returns reported IC50 for input "CC(C)c1c2cc(-c3ccnc(N[C@H]4CC[C@H](N)C4)n3)ccc2nn1C"
448

* * *

Biological target: TAOK1 (Homo sapiens, UniProt Q7L7X3)
Sequence (Q7L7X3 1-1001): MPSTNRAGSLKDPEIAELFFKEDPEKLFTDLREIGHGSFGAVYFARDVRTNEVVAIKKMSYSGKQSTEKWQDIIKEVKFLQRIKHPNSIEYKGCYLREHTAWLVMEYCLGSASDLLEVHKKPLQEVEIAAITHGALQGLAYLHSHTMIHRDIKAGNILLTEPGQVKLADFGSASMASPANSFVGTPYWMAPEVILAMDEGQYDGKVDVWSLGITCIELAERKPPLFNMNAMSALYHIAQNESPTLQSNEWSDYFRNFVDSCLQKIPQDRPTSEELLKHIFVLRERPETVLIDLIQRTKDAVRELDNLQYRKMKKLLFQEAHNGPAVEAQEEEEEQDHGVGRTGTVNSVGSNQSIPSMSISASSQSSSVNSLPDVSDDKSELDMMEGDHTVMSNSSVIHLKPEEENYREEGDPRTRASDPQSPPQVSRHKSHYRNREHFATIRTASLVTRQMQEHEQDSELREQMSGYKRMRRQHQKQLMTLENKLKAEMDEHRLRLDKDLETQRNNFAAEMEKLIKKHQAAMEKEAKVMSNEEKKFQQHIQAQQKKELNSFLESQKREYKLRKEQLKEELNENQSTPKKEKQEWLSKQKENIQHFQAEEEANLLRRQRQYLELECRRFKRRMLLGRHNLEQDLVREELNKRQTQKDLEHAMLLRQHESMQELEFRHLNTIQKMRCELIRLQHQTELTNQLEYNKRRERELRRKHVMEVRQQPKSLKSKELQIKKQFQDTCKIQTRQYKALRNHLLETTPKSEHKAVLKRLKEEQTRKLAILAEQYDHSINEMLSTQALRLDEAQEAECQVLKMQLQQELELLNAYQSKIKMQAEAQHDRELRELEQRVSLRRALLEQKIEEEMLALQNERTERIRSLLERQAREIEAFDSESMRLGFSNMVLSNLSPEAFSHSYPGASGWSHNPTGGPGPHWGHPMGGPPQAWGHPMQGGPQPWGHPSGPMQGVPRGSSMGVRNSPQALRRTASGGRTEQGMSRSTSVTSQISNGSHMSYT
metric name: Kd
Put down the number, then write its unit next to it.

// returns reported Kd for input "CC(C)c1c2cc(-c3ccnc(N[C@H]4CC[C@H](N)C4)n3)ccc2nn1C"
19 nM
